Assay: PK after subcutaneous administration of solutions in dogs
Assay type: in vivo, Beagle dog
Settings: Beagle, dog, plasma, sc, 6 mg/kg, dog; SC 6 mg/kg; 150 mg/mL solution (w/w %: 26.6 water, 56.97 PEG 300, 13.39 Formula (Ia), 0.57 NaOH, 2.49 poloxamer 188); mean ± SD, n=3; read-out: AUC0-56d
Experimental: Formulations containing the compound of Formula (Ia) were prepared as aqueous solutions or oral formulations and administered subcutaneously to rats, dogs, cynomolgus monkey, and/or rhesus monkey. A solution of the compound of Formula (Ia) in 10% ethanol, 13% water, and 77% PEG 200 (400 mg/mL) was prepared. The solution was administered subcutaneously to dogs at a dose of 12 mg/kg and rats at a dose of 50 mg/kg and the pharmacokinetic (PK) profile was determined. […]
reported_metric: AUC(0-t) (µM·h)
Report only the number, with the unit µM·h understood.

Form field: reported AUC(0-t) of CC(C)(C#Cc1ccc(-c2ccc(Cl)c3c(NS(C)(=O)=O)nn(CC(F)(F)F)c23)c([C@H](Cc2cc(F)cc(F)c2)NC(=O)Cn2nc(C(F)(F)F)c3c2C(F)(F)[C@@H]2C[C@H]32)n1)S(C)(=O)=O [Formula (Ia)]
69

====

tested on: NNRTI-resistant viruses; test: Cytopathic antiviral assay in MT-2 cells, NNRTI-resistant viruses; format: cell-based, HIV-1; details: K103N, Mutant/WT (HXB2D) EC50 ratio, mean ± s.d. of three experiments
reported_metric: EC50 Fold-Change

A selection of reference data follows.
I would be grateful if you could share the reported EC50 Fold-Change for `O=C1Nc2ccc(Cl)cc2[C@@](C#CC2CC2)(C(F)(F)F)O1` .
14.2 ± 2.7

Tell me the measured EC50 Fold-Change of `CC(C)(C#Cc1ccc(-c2ccc(Cl)c3c(NS(C)(=O)=O)nn(CC(F)(F)F)c23)c([C@H](Cc2cc(F)cc(F)c2)NC(=O)Cn2nc(C(F)(F)F)c3c2C(F)(F)[C@@H]2C[C@H]32)n1)S(C)(=O)=O` , please.
0.3 ± 0.1

Query compound follows.
Please look up its EC50 Fold-Change: `Cc1cc(/C=C/C#N)cc(C)c1Nc1ccnc(Nc2ccc(C#N)cc2)n1`
0.7 ± 0.3
